Test system: P. falciparum 3D7 growth, pLDH absorbance
assay.info: blood-stage malaria parasite growth potency – strain 3D7, dose response (AID 2305)
pIC50: −log10 of the molar value.
Recorded pIC50 by entry

| smiles.record | pIC50 |
| --- | --- |
| COc1ccc2nccc([C@@H](O)CN3CCC(NCCOc4cc(F)cc(F)c4)CC3)c2c1 | 6.80 |
| O=C(Nc1ccc(Br)cc1)N1CCC(n2c(-c3ccccc3)nc3cccnc32)CC1 | 6.12 |
| c1cc(-c2ccc(CN3CCCC3)cc2)cc(-c2nc3ccccc3[nH]2)c1 | 6.16 |
| COc1ccc2nccc([C@@H](O)CN3CCC(NC(=O)c4cccc(C(=O)c5ccccc5)c4)CC3)c2c1 | 6.16 |
| CC[C@H](C)CNCc1ccc(OCc2cccc(COc3ccc(CNC[C@@H](C)CC)cc3I)c2)c(I)c1 | 6.40 |
